Just for reference, patent US20130309248A1 is where these values come from.

target.of.assay: full-length recombinant H7 HA (A/Netherlands/219/2003) on PER.C6 cells (influenza A virus (H7N7))
assay: FACS, IgG 5 µg/ml, HA-expressing PER.C6 cells; untransfected MFI 3
observation.type: MFI (MFI)

binder="CR8003 (antibody, V domains shown) VH: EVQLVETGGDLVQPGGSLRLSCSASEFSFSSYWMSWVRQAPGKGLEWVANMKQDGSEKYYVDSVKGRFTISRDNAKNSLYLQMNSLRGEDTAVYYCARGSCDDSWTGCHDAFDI VL: VLTQPPSVSVAPGQTARIACGGNNIGSKSVHWYQQKPGQAPVLVVYDDSARPSGIPERFSGSNSGNTATLTISRVEAGDEADYYCQVWESGSDLRLL" obs_value=5
binder="CR8015 (antibody, V domains shown) VH: QVQLQESGGDLVQPGGSLRLSCSASEFSFSSYWMSWVRQAPGKGLEWVANMKQDGSEKYYVDSVKGRFTISRDNAKNSLYLQMNSLRGEDTAVYYCARGSCDDSWTGCHDAFDI VL: VLTQPPSVSVAPGQTAKITCGGDNIGRKSVHWYQQKPGLAPVLVVNDNSDRPSGIPARFSGSNSGNTATLTISRVEAGDEADYYCHVWGSSRDHYV" obs_value=4
binder="CR8018 (antibody, V domains shown) VH: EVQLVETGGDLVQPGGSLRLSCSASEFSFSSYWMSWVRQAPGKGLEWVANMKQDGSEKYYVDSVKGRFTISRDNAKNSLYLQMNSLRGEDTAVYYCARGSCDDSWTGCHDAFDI VL: QSALTQPASVSGSPGQSITISCTGTSSDVGGYNYVSWYQQHPGKAPKLMIYEVSHRPSGVSNRFSGSKSGSTASLTISGLQSEDEADYYCSSYTGEGPLGV" obs_value=4
